# EXPERIMENTAL SYSTEM: T1, BCMA-Fc recombinant protein (human, UniProt Q02223 1-54)
# T1 construct: Soluble staining reagent, 5 µg/ml; not shown: Fc part
# T1 sequence (looked up): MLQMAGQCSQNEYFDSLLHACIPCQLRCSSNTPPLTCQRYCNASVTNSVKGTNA
# TEST DESCRIPTION: flow cytometry: lentivirally transduced CAR-T cells stained with 5 µg/ml BCMA-Fc, detected with anti-human IgG Fc (FIG. 17B)
ENDPOINT: binding result

anti-BCMA scFv BCMA31 (scFv, also called BCMA31 scFv; BCMA31 CAR) scFv: QSALTQPPSASGSPGQSVTISCTGTSSDVGTYNYVSWYQQHPGKAPKLMIYDVNQRPSGVPDRFSGSKSGNTASLTVSGLQAEDEADYYCSSYGGSNNLVFGGGTKVTVLGGGGSGGGGSGGGGSEVQLVESGGGLIQPGGSLRLSCAASGFTFSSYWMSWVRQSPGKGLEWVANIKPDGSDKYYVDSVKGRFTISRDNAKNSLDLQMNSLRGEDTAIYYCARGATTYGSWGQGTLVTVSS : binds

The values you see were collected from patent US20250144213A1.
